system: Vero E6 infected with SARS-CoV-2; assay: SARS-CoV-2 infection rate relative to infected DMSO; higher = more infection, active = 60 or less; conditions: 24 h
quantity_name: SARS-CoV-2 infection rate

compound="N#Cc1ccc2[nH]c(O)c(-c3ccc(CN4CCOCC4)cn3)c2c1 (10 µM)" reported_result="100% (inactive)"
compound="O=C(CCCN1CCC(n2c(=O)[nH]c3ccccc32)CC1)c1ccc(F)cc1 [benperidol] (10 µM)" reported_result="118% (inactive)"
compound="CCN(CC)Cc1cc(Nc2ccnc3cc(Cl)ccc23)ccc1O [amodiaquine] (10 µM)" reported_result="17.5% (active)"
compound="CCCCCCCC/C=C/C(=O)O [trans-2-undecenoic-acid] (10 µM)" reported_result="112% (inactive)"
compound="O=C1C2CCN(CC2)C1(CO)CO (10 µM)" reported_result="83.5% (inactive)"
compound="CO/N=C1/C[C@@H](C(=O)NC[C@@H](O)c2ccccc2)N(C(=O)c2ccc(-c3ccccc3C)cc2)C1 [OT-R-antagonist-1] (10 µM)" reported_result="98.5% (inactive)"
compound="COc1ccc(/C=C/C(=O)Nc2ccccc2C(=O)O)cc1OC [tranilast] (10 µM)" reported_result="108% (inactive)"
compound="O=C(Nc1ccccc1)c1cc([N+](=O)[O-])ccc1Cl (10 µM)" reported_result="94.5% (inactive)"
compound="Cc1cc(NS(=O)(=O)c2ccc(N)cc2)no1 [sulfamethoxazole] (10 µM)" reported_result="94.5% (inactive)"
compound="CCC(=O)OCC(=O)[C@@]1(OC(=O)CC)[C@H](C)C[C@H]2[C@H]3[C@H]([C@@H](O)C[C@@]21C)[C@@]1(C)C=CC(=O)C=C1C[C@H]3Cl [alclometasone-dipropionate] (10 µM)" reported_result="98% (inactive)"
compound="Cc1cc(C(=O)Nc2nc3cccc(Cl)c3n2[C@@H]2CCCCN(C(=O)/C=C/CN(C)C)C2)ccn1 (0.833333 µM)" reported_result="110% (inactive)"
compound="Nc1c(S(=O)(=O)O)cc(Nc2cccc3ccccc23)c2c1C(=O)c1ccccc1C2=O (10 µM)" reported_result="112% (inactive)"
compound="NCCCC[C@H](NC(=O)[C@@H](Cc1cc(Br)c(O)c(Br)c1)NC(=O)N1CCC(N2Cc3ccccc3NC2=O)CC1)C(=O)N1CCN(c2ccncc2)CC1 (10 µM)" reported_result="110% (inactive)"
compound="Cc1cc(SCc2sc(-c3ccc(C(F)(F)F)c(F)c3)nc2C)ccc1OCC(=O)O (10 µM)" reported_result="99.5% (inactive)"
compound="N=C(N)Nc1ccc(C(=O)Oc2ccc3cc(C(=N)N)ccc3c2)cc1 [nafamostat] (10 µM)" reported_result="108% (inactive)"
compound="COc1ccc2nc3[nH]nc(C)c3c(NCCOCCO)c2c1 (10 µM)" reported_result="111% (inactive)"
compound="CC(C)(CO)CCCCCCC(C)(C)CO [gemcadiol] (10 µM)" reported_result="98.5% (inactive)"

----------
test system: Vero E6 infected with SARS-CoV-2; assay: inhibition of SARS-CoV-2 cytopathic effect; higher = more antiviral protection, active = above 15; conditions: 8.33 nM; 48 h
Readings of inhibition of SARS-CoV-2 cytopathic effect for the listed molecules
quantity_name: inhibition of SARS-CoV-2 cytopathic effect

molecule=Fc1cc(-c2cccc3ncc(-c4cnn(C5CCNCC5)c4)nc23)cc(F)c1CN1CCOCC1 subject_of_test="Vero E6 infected with SARS-CoV-2" reported_result="2.64% (inactive)"
molecule=Cc1cc(C(N)=O)ccc1-n1c(CCC(=O)O)ccc1-c1ccc(-n2ccnc2)cc1 subject_of_test="Vero E6 infected with SARS-CoV-2" reported_result="2.86% (inactive)"
molecule="COC(=O)Nc1nc2cc(C(=O)c3ccc(F)cc3)ccc2[nH]1 [flubendazole]" subject_of_test="Vero E6 infected with SARS-CoV-2" reported_result="0.53% (inactive)"
molecule="O=C(O)CNC(=O)c1ccccc1I [2-iodohippuric-acid]" subject_of_test="Vero E6 infected with SARS-CoV-2" reported_result="2.66% (inactive)"
molecule="CC(C)(C)C(=O)C(Oc1ccc(Cl)cc1)n1ccnc1 (stereo not drawn) [climbazole]" subject_of_test="Vero E6 infected with SARS-CoV-2" reported_result="1.03% (inactive)"
molecule=CCN(CC)CCO[C@H]1CC[C@@]2(C)C(=CC[C@@H]3[C@@H]2CC[C@]2(C)C(=O)CC[C@@H]32)C1 subject_of_test="Vero E6 infected with SARS-CoV-2" reported_result="2.95% (inactive)"
molecule="Nc1ncnc2c1ncn2[C@@H]1O[C@H](COP(=O)(O)O)[C@@H](O)[C@H]1O [adenosine-phosphate]" subject_of_test="Vero E6 infected with SARS-CoV-2" reported_result="-1.98% (inactive)"
molecule="Nc1ncn([C@@H]2O[C@H](CO)[C@@H](O)[C@H]2O)c(=O)n1 [azacitidine]" subject_of_test="Vero E6 infected with SARS-CoV-2" reported_result="0.66% (inactive)"
molecule=O=C(O)C[C@H]1CC[C@H](c2ccc(NC(=O)c3nnc(Nc4ccc(F)c(F)c4)o3)cc2)CC1 subject_of_test="Vero E6 infected with SARS-CoV-2" reported_result="-0.74% (inactive)"
molecule="CCNCC(O)c1cccc(O)c1 (stereo not drawn) [etilefrine]" subject_of_test="Vero E6 infected with SARS-CoV-2" reported_result="2.79% (inactive)"
molecule="CC(=O)Nc1ccc(S(=O)(=O)c2ccc(NC(C)=O)cc2)cc1 [acedapsone]" subject_of_test="Vero E6 infected with SARS-CoV-2" reported_result="-3.01% (inactive)"
molecule="C1CCC(C(CC2CCCCN2)C2CCCCC2)CC1 (stereo not drawn) [perhexiline]" subject_of_test="Vero E6 infected with SARS-CoV-2" reported_result="4.47% (inactive)"
molecule="CCCCCCCCCCCC(=O)N(CCO)CCO [lauric-diethanolamide]" subject_of_test="Vero E6 infected with SARS-CoV-2" reported_result="1.8% (inactive)"
molecule=N#Cc1cc(CN2CCC(Nc3ncnc4sc(Cl)cc34)CC2)ccc1F subject_of_test="Vero E6 infected with SARS-CoV-2" reported_result="8.07% (inactive)"
molecule="CNC(=O)c1cc(COc2nnc(Nc3ccc(Cl)cc3)c3ccoc23)ccn1 [telatinib]" subject_of_test="Vero E6 infected with SARS-CoV-2" reported_result="2.23% (inactive)"
molecule="NC[C@H]1O[C@H](O[C@H]2[C@H](O)[C@@H](O[C@H]3O[C@H](CO)[C@@H](O)[C@H](N)[C@H]3O)[C@H](N)C[C@@H]2N)[C@H](N)C[C@@H]1O [tobramycin]" subject_of_test="Vero E6 infected with SARS-CoV-2" reported_result="1.78% (inactive)"
molecule="Nc1ccn([C@@H]2O[C@H](CO)[C@@H](O)[C@@H]2O)c(=O)n1 [cytarabine]" subject_of_test="Vero E6 infected with SARS-CoV-2" reported_result="2.91% (inactive)"
molecule="N=C(Nc1ccccc1)Nc1ccccc1 [diphenylguanidine]" subject_of_test="Vero E6 infected with SARS-CoV-2" reported_result="-2.37% (inactive)"
